B1: glmS ribozyme (parent)
chain: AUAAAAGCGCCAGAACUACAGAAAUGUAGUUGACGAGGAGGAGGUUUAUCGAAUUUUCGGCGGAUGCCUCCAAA

Variants of: B1
Assay: self-cleavage kobs at 10000 uM GlcN6P; higher = faster cleavage; RNA array
Details: with glucosamine-6-phosphate
This sample holds only a part of the variants without activity.
Classification field: enter rule met for self-cleavage kobs at 10000 uM GlcN6P values not below 0.0005 s⁻¹, rule not met for values below it.

Answered cases to consult:
hey, is self-cleavage kobs at 10000 uM GlcN6P for this one >= 0.0005 s⁻¹? G29C U45A
rule met

Please answer likewise for C10G A36G
rule not met

// next record A48U G62U
rule not met

Would you kindly repeat that for G40C A64U C68U ?
rule not met

Please give the result for G9C G41A too.
rule not met

Field entry: G13A C58U
rule not met

Same question for G29A A42C please.
rule not met

Please answer likewise for A39U U55G
rule met

# iterate: G9A C11U U30C A52U G62U
rule not met

Now this one: A33C A36C C50U C68A
rule not met

Continuing:
self-cleavage kobs at 10000 uM GlcN6P >= 0.0005 s⁻¹ for C58A U69C ?
rule not met

Would you kindly repeat that for C11G G44U A48C C50A G59U G62C ?
rule not met

Check U57G C71U too.
rule not met

Another variant to look at: A6C G7U
rule not met

// next record A24C A52U G59A
rule not met

Could you do the same for G7C C10A G29U A64C , please?
rule not met

What would you report for A14C U45C A64G G66A ?
rule met

Repeat for the following variant: G32A U57C G62A C67G
rule not met

Now try A15C U54A .
rule met

Data origin, for the record: the supplement of paper PMC7125110
